# ASSAYED TARGET: TV560 (cytosolic Hsp90, TVAG_153560) (Trichomonas vaginalis, UniProt A2EPR1)
# Construct: full-length, 6x-His tag fusion expressed in E. coli (721 amino acids)
# Sequence (A2EPR1 entry or part of it): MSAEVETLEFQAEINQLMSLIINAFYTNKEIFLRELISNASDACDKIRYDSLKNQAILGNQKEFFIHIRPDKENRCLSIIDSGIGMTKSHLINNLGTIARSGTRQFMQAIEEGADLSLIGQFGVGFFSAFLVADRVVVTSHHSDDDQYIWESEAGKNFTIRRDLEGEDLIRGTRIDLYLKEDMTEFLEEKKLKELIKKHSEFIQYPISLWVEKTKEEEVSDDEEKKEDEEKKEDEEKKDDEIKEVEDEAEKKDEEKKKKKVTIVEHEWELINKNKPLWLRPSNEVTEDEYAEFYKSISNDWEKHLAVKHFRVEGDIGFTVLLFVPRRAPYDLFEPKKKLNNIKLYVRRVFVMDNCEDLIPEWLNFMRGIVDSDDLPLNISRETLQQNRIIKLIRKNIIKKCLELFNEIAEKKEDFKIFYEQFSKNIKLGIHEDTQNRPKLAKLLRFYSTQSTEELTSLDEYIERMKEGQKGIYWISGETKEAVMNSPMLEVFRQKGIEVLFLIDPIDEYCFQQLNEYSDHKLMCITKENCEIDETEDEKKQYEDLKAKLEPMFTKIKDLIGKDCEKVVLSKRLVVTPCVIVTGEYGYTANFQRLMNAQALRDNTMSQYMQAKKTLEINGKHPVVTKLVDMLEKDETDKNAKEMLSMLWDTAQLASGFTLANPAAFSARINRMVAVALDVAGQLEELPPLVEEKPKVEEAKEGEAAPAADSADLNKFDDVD
# TEST: intrinsic tryptophan fluorescence quenching; also ATPase inhibition (IC50 […])
# Type: binding
MEASUREMENT KIND: pKd
Quick note: pKd values are minus log10 of concentrations in mol/L.

The reported value for `C=CCNC1=C2C[C@@H](C)C[C@H](OC)[C@H](O)[C@@H](C)/C=C(\C)[C@H](OC(N)=O)[C@@H](OC)/C=C\C=C(/C)C(=O)NC(=CC1=O)C2=O` in terms of pKd is 4.94

====

# ASSAYED TARGET: TV560 (cytosolic Hsp90, TVAG_153560) (Trichomonas vaginalis, UniProt A2EPR1)
# Construct: full-length, 6x-His tag fusion expressed in E. coli (721 amino acids)
# TEST: intrinsic tryptophan fluorescence quenching; also ATPase kinetics (KM […])
# Assay type: binding
MEASUREMENT KIND: pKd
Quick note: pKd values are minus log10 of concentrations in mol/L.

The reported TV560 (cytosolic Hsp90, TVAG_153560) (Trichomonas vaginalis, UniProt A2EPR1) pKd of `Nc1ncnc2c1ncn2[C@@H]1O[C@H](COP(=O)(O)OP(=O)(O)OP(=O)(O)O)[C@@H](O)[C@H]1O` is 3.27

====

# ASSAYED TARGET: TV910 (Grp94 ortholog, TVAG_378910) (Trichomonas vaginalis, UniProt A2DB82)
# Construct: 6x-His tag fusion expressed in E. coli
# Sequence (A2DB82 entry or part of it): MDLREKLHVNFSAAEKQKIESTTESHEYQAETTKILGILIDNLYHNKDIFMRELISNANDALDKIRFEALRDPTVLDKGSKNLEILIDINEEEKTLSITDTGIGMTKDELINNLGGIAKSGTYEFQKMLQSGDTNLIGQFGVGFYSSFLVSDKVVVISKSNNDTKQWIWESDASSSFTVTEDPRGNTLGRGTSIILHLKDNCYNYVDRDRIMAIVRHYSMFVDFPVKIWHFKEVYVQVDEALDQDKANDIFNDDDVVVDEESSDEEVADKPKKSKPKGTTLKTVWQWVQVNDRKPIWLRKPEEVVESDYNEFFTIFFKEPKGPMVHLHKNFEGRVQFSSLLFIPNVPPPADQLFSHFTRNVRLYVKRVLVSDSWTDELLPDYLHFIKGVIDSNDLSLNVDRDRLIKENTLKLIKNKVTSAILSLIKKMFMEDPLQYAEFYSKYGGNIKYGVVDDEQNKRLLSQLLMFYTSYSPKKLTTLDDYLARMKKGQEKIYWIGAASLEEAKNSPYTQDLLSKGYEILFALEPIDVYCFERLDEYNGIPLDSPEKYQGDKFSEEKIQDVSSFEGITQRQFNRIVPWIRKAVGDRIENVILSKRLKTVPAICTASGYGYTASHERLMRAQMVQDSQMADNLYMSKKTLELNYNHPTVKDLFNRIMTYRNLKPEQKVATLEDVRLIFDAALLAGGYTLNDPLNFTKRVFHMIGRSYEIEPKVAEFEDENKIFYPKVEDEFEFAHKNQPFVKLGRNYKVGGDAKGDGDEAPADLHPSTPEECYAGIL
# TEST: intrinsic tryptophan fluorescence quenching; also ATPase kinetics (KM […])
# Assay type: binding
MEASUREMENT KIND: pKd
Quick note: pKd values are minus log10 of concentrations in mol/L.

The reported value for Nc1ncnc2c1ncn2[C@@H]1O[C@H](COP(=O)(O)OP(=O)(O)OP(=O)(O)O)[C@@H](O)[C@H]1O [ATP] in terms of pKd is 3.14

====

# ASSAYED TARGET: TV910 (Grp94 ortholog, TVAG_378910) (Trichomonas vaginalis)
# Construct: 6x-His tag fusion expressed in E. coli
# TEST: intrinsic tryptophan fluorescence quenching; also ATPase inhibition (IC50 […])
# Assay type: binding
MEASUREMENT KIND: pKd
Quick note: pKd values are minus log10 of concentrations in mol/L.

The reported value for C=CCNC1=C2C[C@@H](C)C[C@H](OC)[C@H](O)[C@@H](C)/C=C(\C)[C@H](OC(N)=O)[C@@H](OC)/C=C\C=C(/C)C(=O)NC(=CC1=O)C2=O [17-AAG] in terms of pKd is 4.80
